Readings of Neutralization of HA-pseudotypes (IC90) for the listed binders
molecular target: H5 HA A/HK/213/03 (on pseudotypes) (influenza A virus A/HK/213/03 (H5N1)); assay: cell-based or functional assay

{"columns": ["binder", "Neutralization of HA-pseudotypes (IC90)"],
 "data": [
  ["FE43 (antibody, V domains shown) VH: QVHLVQSGAEVKKPGSSVRLSCSASGGPFSGFAISWLRQAPGQGLEWLGGISAVFGTATYAQKFQGRVTITADQFTSTSHMDLSRLTYDDTAVYYCARSGGYLPQNNWIDPWGQGTLVIVSS VL: DIVMTQTPLSLSVTPGQPASISCKSSQSLLHSDGKTYLYWYLQKPGQSPQLLIYEVSNRFSGVPDRFSGSGSGTDFTLKISRVEAEDVGVYYCMQNILLPLTFGGGTKVEIK", "0.07 µg/mL"],
  ["FB139 (antibody, V domains shown) VH: QVQLVQSGAEVKKAGSSVKVSCQSSGVTFSMYAVSWVRQAPGQGLEWMGGIIPLFGTTTYAQKFEGRLTITADTSTNMAYLELRSLRSEDTAVYFCARAGTTVTRFNWFDPWGQGTLVTVSS VL: EVVLTQSPGTLSLSPGQRATLSCRASQSVSSSYLAWYQQKPGQAPRLLIYDASNRATGIPDRFSGSGSGTDFTLTISRLEPEDFAVYYCQQYGSSPYTFGQGTKLEIK", "0.019 µg/mL"],
  ["FC6 (antibody, V domains shown) VH: QGQLVQSGAEVKKSGSSVKVSCKTSGGTFNSHAISWVRQAPGQGLEWIGGIIPMFGTTNYAQKLKGRIAITADQLPTTAYLELSSLRSEDTAVYYCARGQRYYYDRDGMDVWGQGTMVTVSS VL: EIVMTQTPLSLSVTPGQPASISCRSSQSLLHSDGKTYLYWYLQKPGQPPQLLISEVFNRFSGVPDRFSGSGSGTDFTLKISRVEAEDVGVYYCMQSLQLPLTFGGGTKVEIK", "0.077 µg/mL"],
  ["FE53 (antibody, V domains shown) VH: QVQLVQSGAEVKKPGSSVKVSCKASGVTSSNYPITWVRQAPGQGLEWMGGVLPLFGVTNYAQKFQGRVTISADKSTNTAYMELSSLRSEDTAVYYCARGKRPGYCSGGVCSSDYWGQGTLVTVSS VL: DIQMTQSPSSLSASVGDRVSITCQASQDISRYLNWYQQKPGEAPKLLIYDASNLETGVPSRFSGSGSGTDFTFTISSLQPEDIATYFCQQYGYLPLTFGPGTKVDSK", "0.066 µg/mL"]
]}

// provenance: patent US20100086555A1
